- System: 817829-284-R-J1-PDC multi-cell spheroid viability
- method: Anticancer human tumor 817829-284-R-J1-PDC patient-derived colon adenocarcinoma cell line growth inhibition [PI3K]
- conditions used: second compound 0.0316 µM; first compound 10 µM; active compounds read low
property: viability, T/C (%)

>  <molecule>
Cn1nccc1Nc1nccc(-c2ccn(C(CO)c3ccc(Cl)c(F)c3)c(=O)c2)n1 (stereo not given) + CC(Nc1ccc2c(c1)OCCn1cc(N3C(=O)OCC3C(F)F)nc1-2)C(N)=O

>  <tgt>
817829-284-R-J1-PDC multi-cell spheroid viability

>  <obs value>
30.9

$$$$
>  <molecule>
CNC(=O)c1ccc(N2C(=S)N(c3ccc(C#N)c(C(F)(F)F)c3)C(=O)C2(C)C)cc1F + COc1c(OCCCN2CCOCC2)ccc2c3n(c(=NC(=O)c4cnc(N)nc4)nc12)CCN3

>  <tgt>
817829-284-R-J1-PDC multi-cell spheroid viability

>  <obs value>
27.3

$$$$
>  <molecule>
CNC(=O)c1ccc(N2C(=S)N(c3ccc(C#N)c(C(F)(F)F)c3)C(=O)C2(C)C)cc1F + Cc1nc(NC(=O)N2CCCC2C(N)=O)sc1-c1ccnc(C(C)(C)C(F)(F)F)c1

>  <tgt>
817829-284-R-J1-PDC multi-cell spheroid viability

>  <obs value>
84.6

$$$$
>  <molecule>
CC1(C)CCC(CN2CCN(c3ccc(C(=O)NS(=O)(=O)c4ccc(NCC5CCOCC5)c([N+](=O)[O-])c4)c(Oc4cnc5[nH]ccc5c4)c3)CC2)=C(c2ccc(Cl)cc2)C1 + COc1c(OCCCN2CCOCC2)ccc2c3n(c(=NC(=O)c4cnc(N)nc4)nc12)CCN3

>  <tgt>
817829-284-R-J1-PDC multi-cell spheroid viability

>  <obs value>
44.5

$$$$
>  <molecule>
Cn1ncc(Cl)c1-c1cc(C(=O)NC(CN)Cc2cccc(F)c2)sc1Cl (stereo not given) + CC(Nc1ccc2c(c1)OCCn1cc(N3C(=O)OCC3C(F)F)nc1-2)C(N)=O

>  <tgt>
817829-284-R-J1-PDC multi-cell spheroid viability

>  <obs value>
55.9

$$$$

###

viability, T/C: recorded values
- Tested on: 817829-284-R-J1-PDC multi-cell spheroid viability
- method: Anticancer human tumor 817829-284-R-J1-PDC cell line growth inhibition [PI3K];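 note: spheroids exposed to agents for seven days before readout; percent of vehicle DMSO control viability which is 100%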
- conditions used: second compound 0.316 µM; first compound 0.316 µM; active compounds read low
property: viability, T/C (%)

>  <compound>
Cn1nccc1Nc1nccc(-c2ccn(C(CO)c3ccc(Cl)c(F)c3)c(=O)c2)n1 (stereo unspecified) + Cc1nc(NC(=O)N2CCCC2C(N)=O)sc1-c1ccnc(C(C)(C)C(F)(F)F)c1

>  <property>
viability, T/C

>  <obs value>
72

$$$$
>  <compound>
CC(C)NCC(C(=O)N1CCN(c2ncnc3c2C(C)CC3O)CC1)c1ccc(Cl)cc1 (stereo unspecified) + COc1c(OCCCN2CCOCC2)ccc2c3n(c(=NC(=O)c4cnc(N)nc4)nc12)CCN3

>  <property>
viability, T/C

>  <obs value>
23.6

$$$$
>  <compound>
CC1(C)CCC(Nc2ncc(C(F)(F)F)c(-c3c[nH]c4c(P(C)(C)=O)c(C#N)ccc34)n2)CN1 (stereo unspecified) + CC(Nc1ccc2c(c1)OCCn1cc(N3C(=O)OCC3C(F)F)nc1-2)C(N)=O

>  <property>
viability, T/C

>  <obs value>
26

$$$$
>  <compound>
C[C@@H](NC(=O)c1ncnc(N)c1Cl)c1ncc(C(=O)Nc2cc(C(F)(F)F)c(Cl)cn2)s1 + COc1c(OCCCN2CCOCC2)ccc2c3n(c(=NC(=O)c4cnc(N)nc4)nc12)CCN3

>  <property>
viability, T/C

>  <obs value>
24.6

$$$$
>  <compound>
Cn1ncc(Cl)c1-c1cc(C(=O)NC(CN)Cc2cccc(F)c2)sc1Cl (stereo unspecified) + COc1c(OCCCN2CCOCC2)ccc2c3n(c(=NC(=O)c4cnc(N)nc4)nc12)CCN3

>  <property>
viability, T/C

>  <obs value>
15.2

$$$$
>  <compound>
Cn1ncc(Cl)c1-c1cc(C(=O)NC(CN)Cc2cccc(F)c2)sc1Cl (stereo unspecified) + CC(Nc1ccc2c(c1)OCCn1cc(N3C(=O)OCC3C(F)F)nc1-2)C(N)=O

>  <property>
viability, T/C

>  <obs value>
16.8

$$$$
